Assay System: hNav 1.1 channel (Homo sapiens, UniProt P35498)
Construct: expressed in transfected cells
Procedure Text: Block of cloned hNav1.1 channel in CHO cells (IonWorks Quattro)
Format: cell-based
Condition Notes: hNav1.1 in CHO cells; inactivation state block (TP12); read-out: IC50 Inactivated state
Readout Label: IC50

Some solved cases for reference:
1. Cc1cccc(C)c1OCC(C)NC(=O)C1CC(O)CN1 (stereo not drawn) [Mexiletine 4-hydroxyproline amide] :: 15.5 µM
2. Cc1cccc(C)c1OCC(C)NC(=O)C(C)CN (stereo not drawn) [Mexiletine 2-methyl β alanine amide] :: 16.3 µM

Enquiry: Name the recorded IC50 for CNCC(=O)NC(C)COc1c(C)cccc1C (stereo not drawn) [Mexiletine sarcosine amide] .
Return: 6.3 µM

* * *

Assay System: hNav 1.1 channel (Homo sapiens)
Construct: expressed in transfected cells
Procedure Text: Block of cloned hNav1.1 channel in CHO cells (IonWorks Quattro)
Assay type: cell-based
Condition Notes: hNav1.1 in CHO cells; tonic block (TP1); read-out: IC50 Tonic block
Where a name gives a salt, the structure may show the parent alone.
Readout Label: IC50 (µM)
A number alone suffices; assume µM.

Some solved cases for reference:
1. Cc1cccc(C)c1OCC(C)NC(=O)[C@@H](N)CCCCNC(=N)N (stereo partly shown) [Mexiletine homoarginine amide, dihydrochloride] :: 742
2. Cc1cccc(C)c1OCC(C)NC(=O)C(C)CN (stereo not drawn) [Mexiletine 2-methyl β alanine amide] :: 137

Enquiry: Name the recorded IC50 for Cc1cccc(C)c1OCC(C)NC(=O)CN.O=C(O)C(F)(F)F (racemic) .
Return: 398

The origin of these recorded values is patent US20110028552A1.
